// data source = PubChem BioAssay (NCATS)

Tested on: Zika virus NS2B-NS3 protease (unlinked complex)
Assay: Primary screen GU Rhodamine qHTS for Zika virus inhibitors: Unlinked NS2B-NS3 protease assay (AID 1347159); further: nearly all actives have a fitted effect of over 60% in size; further: potency means the concentration at half of the fitted maximal effect
Details: Recombinant ZIKV NS2B-NS3 protease, Rhodamine110 substrate fluorescence; series mostly up to 107 µM
Results filed as inconclusive are left out. Active and inactive are the calls of the source. The call rests on the fitted dose curve; in most records, active means well fitted inhibition curve with a large enough effect; inconclusive means small, poorly fitted or top-dose-only effect; inactive means no such curve, though single readings can be large or run the other way.
reported endpoint: Potency

// worked examples, Potency included
>>> observed_result("CCN1CCN(C(=O)N[C@@H](C(=O)N[C@@H]2C(=O)N3[C@@H]2SC(C)(C)[C@@H]3C(=O)O)c2ccccc2)C(=O)C1=O")
"inactive"
>>> observed_result("O=C(Nc1cc(-c2ccccc2)nn1-c1ccccc1)c1ccc([N+](=O)[O-])cc1")
"inactive"
>>> observed_result("C=C1CCC2[C@@](C)(C(=O)O)CCC[C@@]2(C)[C@@H]1CCc1ccoc1 (stereo partly specified)")
"10 µM (active)"
>>> observed_result("C[C@@H]1CCC2C(C)(C)[C@H](O)[C@H](O)C[C@]2(C)[C@@]12Cc1c(O)cc3c(c1O2)CN(CCCC(=O)O)C3=O (stereo partly specified)")
"inactive"
>>> observed_result("CC1(C)CC[C@]2(C(=O)O[C@@H]3O[C@H](CO)[C@@H](O)[C@H](O)[C@H]3O)CC[C@]3(C)C(=CCC4[C@@]5(C)CC[C@H](O[C@@H]6O[C@H](C(=O)O)[C@@H](O[C@@H]7O[C@H](CO)[C@@H](O)[C@H](O)[C@H]7O)[C@H](O)[C@H]6O[C@@H]6O[C@H](CO)[C@@H](O)[C@H](O)[C@H]6O)C(C)(C)C5CC[C@]43C)C2C1 (stereo partly specified)")
"inactive"
>>> observed_result("C=C1CCC[C@]2(C)CC[C@@](O)(C(=C)C(=O)O)C[C@@H]12")
"11.2 µM (active)"
>>> observed_result("CC(O)CCc1ccc(O[C@@H]2O[C@H](CO)[C@@H](O)[C@H](O)[C@H]2O)cc1 (stereo partly specified)")
"inactive"
>>> observed_result("CC(=O)OCC(Cc1ccccc1)NC(=O)C(Cc1ccccc1)NC(=O)c1ccccc1 (stereo unspecified)")
"inactive"
>>> observed_result("CCCN1CCC[C@@H](c2cccc(S(C)(=O)=O)c2)C1")
"inactive"
>>> observed_result("CC1(C)C2CCC1(C)C(OC(=O)C(O)(CC(=O)O)CC(=O)O)C2 (stereo unspecified)")
"inactive"

q: What value of measured Potency is listed for O=C(O)CCc1cc2ccoc2cc1O[C@@H]1O[C@H](CO)[C@@H](O)[C@H](O)[C@H]1O ?
a: inactive

q: // query: OC[C@H]1O[C@@H](OC[C@H]2O[C@@H](OCc3ccccc3)[C@H](O)[C@@H](O)[C@@H]2O)[C@H](O)[C@@H](O)[C@@H]1O
a: inactive

q: // query: COC(=O)[C@]1(C)CCC[C@@]2(C)C(=O)CC[C@H]3C(=O)C=C(CC[C@@H]21)C3O (stereo partly specified)
a: inactive

q: // query: C[C@@H]1CC2OC(=O)C3=C2C(CCC3O)[C@@]12C[C@@H](c1ccoc1)OC2=O (stereo partly specified)
a: inactive

q: // query: CC(C)c1ccc2c(c1)CCC1[C@](C)(C(=O)O)CCC[C@]21C (stereo partly specified)
a: 20 µM (active)

q: // query: CC(C)=C1CC2[C@](C)(CC[C@@H](OC(=O)C3(C)OC3C)[C@@]2(C)O)CC1=O (stereo partly specified)
a: inactive
